Test: solvent given as SMILES
Settings: in CN(C)C=O
Assign Condition met to entries whose absorption maximum meets or exceeds 400 nm; assign Condition not met to the rest.

Some solved entries appear below for comparison.
Compound: Cc1ccc([C@@H]2C[C@](O)(c3ccccn3)C[C@](O)(c3ccccn3)[C@H]2C(=O)c2ccc(N(c3ccccc3)c3ccccc3)cc2)cc1
Class assignment: Condition not met

Compound: COc1ccc(-c2c3ccccc3c3n2[B-](F)(F)[N+]2=Cc4c5ccccc5c(-c5ccc(OC)cc5)n4[B-](F)(F)[N+]2=C3)cc1
Class assignment: Condition met

stdin: Given `O=C1/C(=C2\Sc3ccc(S(=O)(=O)O)cc3C2=O)Sc2ccc(S(=O)(=O)O)cc21` , state whether its absorption maximum is at least 400 nm.
stdout: Condition met

stdin: Check if absorption maximum >= 400 nm (inclusive). Item: `N#Cc1c2nc3ccccn3c2nc2c1nc1ccccn12`
stdout: Condition met

stdin: Entry `COc1ccc(-n2nc(C#N)c(N3CCCC3)n2)cc1` : is its absorption maximum no less than 400 nm?
stdout: Condition not met

stdin: Please check the record `Cc1ccc2occ(CC(=O)NN)c2c1` and state if its absorption maximum is at or above 400 nm.
stdout: Condition not met

stdin: Hello, I need to know if `COc1ccc2c(CC(=O)NN)coc2c1` has measured absorption maximum not below 400 nm. Thanks!
stdout: Condition not met

stdin: Does absorption maximum meet or surpass 400 nm for `CCn1c2ccccc2c2cc(-c3cc(-c4ccc5c(c4)c4ccccc4n5CC)nc(-c4ccc(OC)cc4)n3)ccc21` ?
stdout: Condition not met

stdin: Answer whether absorption maximum of `N#CC(C#N)=C(c1cccc(N(c2ccccc2)c2ccccc2)c1)c1cccc(N(c2ccccc2)c2ccccc2)c1` is greater than or equal to 400 nm.
stdout: Condition not met

stdin: Does `O=c1c2ccccc2n2c3ccc(-c4ccccc4)cc3c(=O)c3cccc1c32` have a reported absorption maximum of at least 400 nm?
stdout: Condition met

----------
# absorption maximum annotations
Assay: solvent given as SMILES
Details: in Cc1ccccc1
Answer format: number, then unit.

Here's what some known entries look like.
Smiles text: N#CC(C#N)=Cc1ccc2c(c1)c1ccccc1n2-c1cc2ccccc2c2ccccc12
absorption maximum: 402 nm
//
Smiles text: O=C1NC(=O)C(c2c[nH]c3ccccc23)=C1c1c[nH]c2ccccc12
absorption maximum: 447 nm
//
Smiles text: N#C/C(=C\c1ccc(C#N)cc1)c1nc(-c2ccccc2)cs1
absorption maximum: 380 nm
//
Smiles text: N#CC(C#N)=Cc1cn(-c2ccccc2)nc1-c1ccc([N+](=O)[O-])cc1
absorption maximum: 356 nm
//
Smiles text: c1ccc(-c2nc(-c3ccccc3)c(-c3ccccc3)o2)cc1
absorption maximum: 311 nm
//
Smiles text: O=C(O)c1ccc2ccc3cccc4ccc1c2c34
absorption maximum: 382 nm
//
Smiles text: COc1ccc(-c2c3ccccc3c3n2[B-](F)(F)[N+]2=Cc4c5ccccc5c(-c5ccc(OC)cc5)n4[B-](F)(F)[N+]2=C3)cc1
absorption maximum: 579 nm
//
Smiles text: CCCC1=Cc2nc1ccc1[nH]c(cc1CCOC)c1nc(ccc3[nH]c2cc3CCC)C(CCC)=C1
absorption maximum: 637 nm

Input `c1ccc([B-]2(c3ccccc3)Oc3ccc4ccccc4c3-c3c4ccccc4cc[n+]32)cc1` . Output absorption maximum: 427 nm

----------
Assay: solvent given as SMILES
Conditions: in ClCCl
Test readout: absorption maximum (nm)
The reply should be a number in nm, with the unit left off.

Some solved entries appear below for comparison.
Smiles text: CCn1c2cc(-c3ccc(-c4cccs4)s3)ccc2c2ccc(-c3ccc(-c4cccs4)s3)cc21
absorption maximum [nm]: 399
--
Smiles text: O=c1oc2ccccc2cc1-c1ccc(-c2ccc(-c3cc4ccccc4oc3=O)cc2)cc1
absorption maximum [nm]: 341
--
Smiles text: C(S/C=C/c1ccc(/C=C/SC=C2CCCCC2)cc1)=C1CCCCC1
absorption maximum [nm]: 350
--
Smiles text: CN1c2ccc(C(=O)c3ccccc3)cc2Sc2cc(C(=O)c3ccccc3)ccc21
absorption maximum [nm]: 408

Could you now consider this next compound?
Value of measured absorption maximum for the entry `C(=C\c1ncc2ccccc2n1)/c1ccc(N2CCCCC2)cc1` : 385
